This section presents compounds with their documented MIC50 values.
Tested on: Superantigen positive S. aureus (14)
Test: microbe, parasite or virus in culture
Settings: Staphylococcus aureus, 18 h
Give the value; after it, write the unit.

Worked cases, MIC50 given:
# molecule, MIC50
records = [
    ("CC(=O)NC[C@H]1CN(c2ccc(N3CCOCC3)c(F)c2)C(=O)O1", "1 µg/mL"),
    ("O=C(N[C@H](CO)[C@H](O)c1ccc([N+](=O)[O-])cc1)C(Cl)Cl", "8 µg/mL"),
]

Item "CN(C)c1cc(NC(=O)CNC(C)(C)C)c(O)c2c1C[C@H]1C[C@H]3[C@H](N(C)C)C(O)=C(C(N)=O)C(=O)[C@@]3(O)C(O)=C1C2=O" was tested on Superantigen positive S. aureus (14); the reported MIC50 is 0.5 µg/mL

###

System: Superantigen positive S. aureus (14)
Assay: microbe, parasite or virus in culture
Conditions: Staphylococcus aureus, 18 h, read-out: MICs 90%
quantity.measured: MIC90 (µg/mL)
Give your result in µg/mL as a bare value.

Worked cases, MIC90 given:
# compound, system.under.test, quantity.measured, data.value
measured = [
    ("CN(C)c1cc(NC(=O)CNC(C)(C)C)c(O)c2c1C[C@H]1C[C@H]3[C@H](N(C)C)C(O)=C(C(N)=O)C(=O)[C@@]3(O)C(O)=C1C2=O [Tigecycline, tigecycline]", "Superantigen positive S. aureus (14)", "MIC90", 0.5),
    ("CC[C@H]1OC(=O)[C@H](C)[C@@H](O[C@H]2C[C@@](C)(OC)[C@@H](O)[C@H](C)O2)[C@H](C)[C@@H](O[C@@H]2O[C@H](C)C[C@H](N(C)C)[C@H]2O)[C@](C)(O)C[C@@H](C)C(=O)[C@H](C)[C@@H](O)[C@]1(C)O [Erythromycin, erythromycin]", "Superantigen positive S. aureus (14)", "MIC90", 256),
]

# ---- query compound ----
Item O=C(N[C@H](CO)[C@H](O)c1ccc([N+](=O)[O-])cc1)C(Cl)Cl [Chloramphenicol, chloramphenicol] was tested on Superantigen positive S. aureus (14); the reported MIC90 is 64
